# ASSAYED_SYSTEM: Proteasome subunit beta (Trypanosoma cruzi) (UniProt O96673)
# Sequence (O96673 as listed by the source): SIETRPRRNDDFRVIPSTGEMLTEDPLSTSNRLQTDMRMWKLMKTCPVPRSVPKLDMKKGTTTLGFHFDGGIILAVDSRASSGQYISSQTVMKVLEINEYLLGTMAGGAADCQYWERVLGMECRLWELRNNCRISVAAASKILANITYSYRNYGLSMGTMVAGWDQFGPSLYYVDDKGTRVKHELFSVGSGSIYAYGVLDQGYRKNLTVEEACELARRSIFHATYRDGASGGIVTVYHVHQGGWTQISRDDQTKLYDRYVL
# PROCEDURE_TEXT: Trypanosoma cruzi proteasome chymotrypsin-like activity (TcProtChymo) assay. Further: in the data most compounds retested in dose-response had high values.
# Assay type: functional
# Design: scale not given: direction of the effect not stated beside the values
# TEST_CONDITIONS: 9.37 µM
METRIC: Percent Effect (%)
# output: bare number, implied unit %

Cc1cc(C)n(CC2CCCCN2CC(=O)Nc2cccnc2)n1 (configuration not stated)
-1.74
CCN1CCCC(CNC(=O)C2(c3cccc(Cl)c3)CC2)C1 (configuration not stated)
14.6
Cc1nc[nH]c1CN1C[C@@H]2CC[C@H](C1)N(C(=O)CCc1cnn(C)c1)C2
5.09
COCCNC(=O)[C@H]1C[C@@H]2CCN(c3nncs3)C[C@H]2O1
-0.254

## Task Specify Percent Effect for COc1cnc(C2(O)CCN(C(=O)c3ccncc3)CC2)c(OC)n1 and stop.
## Result 3.74

## Task Specify Percent Effect for O=C(NCC(Cc1cccc(F)c1)N1CCCC1=O)c1ccccc1 (configuration not stated) and stop.
## Result 13.1

## Task Specify Percent Effect for CS(=O)(=O)N1CCOCC2(CN(Cc3ccsc3)CCO2)C1 (configuration not stated) and stop.
## Result 8.82

## Task Specify Percent Effect for COCCCN(CCOC)C(=O)Nc1ccc(C)cc1C and stop.
## Result 2.01

## Task Specify Percent Effect for O=C(c1ccncn1)N1CCO[C@H]2[C@@H](OCc3cccnc3)CC[C@@H]21 and stop.
## Result 8.72

## Task Specify Percent Effect for Cc1cn(-c2ccccc2)nc1NS(=O)(=O)c1cccc(C(=O)O)c1 and stop.
## Result 14.4

## Task Specify Percent Effect for CC(=O)Nc1ccc(CNC2CC(=O)N(Cc3cccc(F)c3)C2)cc1 (configuration not stated) and stop.
## Result 1.55

## Task Specify Percent Effect for CC(=O)N1CCN(S(=O)(=O)c2ccc(C)c(F)c2)CC1 and stop.
## Result 13.1

## Task Specify Percent Effect for O=C(O)c1cc2c(nc1O)CC(c1cccs1)CC2=O (configuration not stated) and stop.
## Result 15.9

## Task Specify Percent Effect for Cc1cc(N2CCN(CCO)CC2)nc(-c2ccncc2)n1 and stop.
## Result 21.6

## Task Specify Percent Effect for COc1ccc(CN(Cc2cncn2C)CC2CCCO2)cc1OC (configuration not stated) and stop.
## Result 9.52

## Task Specify Percent Effect for Cc1c(C)n(-c2ccccn2)c2nc3c(c(N)c12)CCCC3 and stop.
## Result 25.1

## Task Specify Percent Effect for Cn1cnnc1C1CCCN(C(=O)NCc2cc[nH]n2)C1 (configuration not stated) and stop.
## Result 9.05

## Task Specify Percent Effect for CC(c1ccccc1)n1c(SCC(=O)O)nnc1-c1ccccc1Cl (configuration not stated) and stop.
## Result 9.65

## Task Specify Percent Effect for O=C1[C@H]2CC[C@H](CN(Cc3ccccc3OC(F)F)C2)N1CC1CC1 and stop.
## Result 17.1

## Task Specify Percent Effect for Cc1ccc(C(=O)NCCCNS(C)(=O)=O)c(=O)[nH]1 and stop.
## Result 22.4

## Task Specify Percent Effect for CN1C(=O)C[C@@H]2[C@@H]1CCN2S(=O)(=O)Cc1ccccc1 and stop.
## Result 2.83

----------
# ASSAYED_SYSTEM: AMP-activated protein kinase, AMPK (Homo sapiens) (UniProt P54646+O43741+P54619+Q9UGJ0+Q9Y478+Q13131+Q9UGI9)
# PROCEDURE_TEXT: AMP-dependent Kinase enzyme assay. An in vitro enzyme assay that detects ADP turnover that is directly proportional to AMPK activity. This uses naive AMPK that is activated during the assay with MK-8722
# Format: functional
# Parameters: scale not given: direction of the effect not stated beside the values
# TEST_CONDITIONS: 30 µM
Each entry below lists one item and its recorded Percent Effect value.
# output: bare number, implied unit %

The examples below pair each entry with its known result.
O=C(c1cccnc1O)N(Cc1ccsc1)CC1CCCO1 (centres undefined)
-1.43
CCCS(=O)(=O)c1ncc(CN2CCC(CO)CC2)n1CC1CCCO1 (centres undefined)
-2.25
CC(NC(=O)C1=NN(C)C(=O)CC1)c1ccc(Cl)cc1Cl (centres undefined)
8.07
CCc1nc(CN(C)C2CCN(Cc3ccc(C#N)cc3F)C2)no1 (centres undefined)
-3.61
COc1ccc(NC(=O)NCC(O)c2ccc(F)cc2F)c(OC)c1 (centres undefined)
1.85

## Task Specify Percent Effect for CC(C)c1nc(N2CC(N3CCCCC3C)C2)c2cnn(C)c2n1 (centres undefined) and stop.
## Result -1.43

## Task Specify Percent Effect for O=c1cc(CN2CCCC2)nc2n1CCCN(Cc1ccsc1)C2 and stop.
## Result 3.4

These data points were gathered from ChEMBL document CHEMBL3988442.
